The reported numbers originate from PubChem BioAssay AID2315.

Assay: A qHTS for Small Molecule Inhibitors of Shiga Toxin; also: 0% is about no effect
Conditions: Vero cells, Shiga toxin protein synthesis inhibition reporter; at 38.7 µM, hits give high values
Out of some 290,000 compounds screened, about 27,000 (9.3%) were called active. Shown is part of a subset that was picked to be rich in actives.
Collected inhibition values appear next to each entry.

compound: CCCn1nnnc1NCc1ccc(OC)cc1
output.unit: %
inhibition: -12.1
--
compound: CSc1nnc(C2CCCN(CC(=O)Nc3ccccc3N3CCOCC3)C2)n1C(C)C (stereo unspecified)
output.unit: %
inhibition: -9.97
--
compound: COc1ccc(S(=O)(=O)N2CCN(C(=S)NCC3CCCO3)CC2)cc1OC (stereo unspecified)
output.unit: %
inhibition: -11.6
--
compound: O=S(=O)(NC1CCCCC1N1CCC(O)CC1)c1ccc(Cl)cc1 (stereo unspecified)
output.unit: %
inhibition: -13.2
--
compound: COc1ccc(-c2cc(C(F)(F)F)nc(SCCC(=O)NCc3ccco3)n2)cc1
output.unit: %
inhibition: 25.3
--
compound: CCN(CC)S(=O)(=O)c1ccc(N2CC(C(=O)NCc3cccnc3)CC2=O)cc1 (stereo unspecified)
output.unit: %
inhibition: -5.91
--
compound: COc1ccccc1C(=O)Nc1ccnn1C1CCN(Cc2cnn(C)c2)CC1
output.unit: %
inhibition: 14.1
--
compound: CC(=O)N1c2ccc(S(=O)(=O)N3CCCC(C(=O)NCc4ccc(Cl)cc4)C3)cc2CC1C (stereo unspecified)
output.unit: %
inhibition: 8.69
--
compound: O=C(O)c1ccc(NC(=O)c2cn(-c3ccccc3)nc2-c2ccc(Cl)cc2)cc1
output.unit: %
inhibition: 24.5
--
compound: Cc1nc(C(=O)Nc2ccc(Cl)cc2)sc1C1(C)CC(c2ccccc2)=NO1 (stereo unspecified)
output.unit: %
inhibition: -2.44
--
compound: CC(=O)c1c(C)oc2ccc(NS(=O)(=O)c3ccccc3)cc12
output.unit: %
inhibition: -6.31
--
compound: O=C(COC(=O)CNC(=O)c1ccco1)Nc1ccc(F)cc1
output.unit: %
inhibition: -5.84
--
compound: Cc1cc(C(=O)CSc2nc(N)cc(=O)[nH]2)c(C)n1Cc1ccco1
output.unit: %
inhibition: -5.79
--
compound: Cc1ccc(NC(=O)C2CCCN2S(=O)(=O)c2cccc3cccnc23)c(C)c1 (stereo unspecified)
output.unit: %
inhibition: -11.1
--
compound: CCc1nn(CCCC(=O)Nc2ccc(C)cc2C)c(=O)c2cc3occc3n12
output.unit: %
inhibition: -5.79
--
compound: CCN(CC)CCn1cnc2c1c(=O)[nH]c(=O)n2Cc1ccccc1
output.unit: %
inhibition: -12.7
